Target: human TRPC6 (Homo sapiens)
Construct: expressed in transfected cells
Sequence (Q9Y210 whole entry): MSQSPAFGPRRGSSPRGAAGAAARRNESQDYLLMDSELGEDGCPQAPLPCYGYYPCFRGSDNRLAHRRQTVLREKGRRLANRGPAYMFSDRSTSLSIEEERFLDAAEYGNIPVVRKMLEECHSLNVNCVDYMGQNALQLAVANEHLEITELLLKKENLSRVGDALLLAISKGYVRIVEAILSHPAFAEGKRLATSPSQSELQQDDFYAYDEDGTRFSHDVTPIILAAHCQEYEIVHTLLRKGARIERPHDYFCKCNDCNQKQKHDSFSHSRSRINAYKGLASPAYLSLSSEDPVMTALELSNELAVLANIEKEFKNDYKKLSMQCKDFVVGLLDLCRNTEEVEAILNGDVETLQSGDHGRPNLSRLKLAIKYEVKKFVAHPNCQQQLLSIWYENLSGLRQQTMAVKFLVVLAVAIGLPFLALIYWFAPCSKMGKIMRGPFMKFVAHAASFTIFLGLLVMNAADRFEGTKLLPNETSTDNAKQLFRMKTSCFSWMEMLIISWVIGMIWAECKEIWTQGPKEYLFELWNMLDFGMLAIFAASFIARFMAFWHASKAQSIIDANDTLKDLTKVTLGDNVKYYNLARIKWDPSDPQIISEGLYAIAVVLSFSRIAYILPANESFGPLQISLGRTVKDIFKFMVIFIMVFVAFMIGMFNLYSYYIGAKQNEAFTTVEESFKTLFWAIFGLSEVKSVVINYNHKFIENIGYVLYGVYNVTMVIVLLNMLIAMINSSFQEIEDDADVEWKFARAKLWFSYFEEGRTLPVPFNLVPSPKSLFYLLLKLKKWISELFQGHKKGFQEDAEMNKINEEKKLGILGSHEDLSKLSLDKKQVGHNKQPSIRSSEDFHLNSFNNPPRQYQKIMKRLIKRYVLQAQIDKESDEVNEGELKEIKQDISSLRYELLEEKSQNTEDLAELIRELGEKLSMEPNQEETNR
Assay: TRPC6 calcium flux assay (FLIPR, OAG-stimulated calcium influx)
Format: cell-based
Conditions: HEK293 cells stably transfected with human TRPC6, read-out: hTRPC6 Potency
pIC50: −log10 of the molar value. Counter-ions that a name gives are not always drawn.
Just so you know, the groups by pIC50 go like this: 1: < 6; 2: ≥ 6 and < 8; 3: ≥ 8

IN: Any idea which band C[C@@H](c1ccc(Cl)cn1)n1c(N2CC[C@@H](F)[C@H](N)C2)nc2cc(F)c(F)cc21 [Example 218, hydrochloride] is in?
OUT: 3

IN: Any idea which band COc1cc(Cl)ccc1Cn1c(N2CC[C@@H](F)[C@H](N)C2)nc2cc(F)c(F)cc21 is in?
OUT: 2

IN: Any idea which band C[C@@H]1CCN(c2nc3ccccc3n2Cc2ccc(C#N)cc2)C[C@@H]1N is in?
OUT: 1

IN: Any idea which band N#Cc1ccc(Cn2c(N3CC[C@H](F)[C@H](N)C3)nc3ccccc32)nc1 is in?
OUT: 3

IN: Any idea which band N#Cc1ccc2c(c1)nc(N1CCC(F)(F)[C@H](N)C1)n2Cc1ncc(Cl)cn1 is in?
OUT: 1

IN: Any idea which band CN(CC(F)(F)F)C(=O)Cn1c(N2CC[C@@H](CN)C2)nc2ccc(F)cc21 is in?
OUT: 1

IN: Any idea which band N[C@@H]1CN(c2nc3cc(F)c(F)cc3n2CC(=O)N(C2CC2)C2CCS(=O)(=O)C2)CC[C@H]1F (stereo partly shown) is in?
OUT: 1

IN: Any idea which band N[C@@H]1CN(c2nc3cc(C(F)(F)F)ccc3n2CC(=O)N2CCC2)CC[C@@H]1F is in?
OUT: 2

IN: Any idea which band COc1cnc(Cn2c(N3CC[C@@H](F)[C@H](N)C3)nc3ccc(F)cc32)nc1 is in?
OUT: 3

IN: Any idea which band N#Cc1ccc(Cn2c(N3CC[C@H](F)[C@H](N)C3)nc3cc(F)ccc32)nc1 [Example 48, hydrochloride] is in?
OUT: 3

IN: Any idea which band N#Cc1ccc(Cn2c(N3CCC[C@@H](N)C3)nc3ccccc32)nc1 is in?
OUT: 1

IN: Any idea which band CC1CCCN(C(=O)C2CCN(C(=O)Cn3c(N4CC[C@@H](F)[C@H](N)C4)nc4cc(F)c(F)cc43)CC2)C1 (stereo partly shown) is in?
OUT: 1
